test system: Saccharomyces cerevisiae; test: protein stability index of tFT-peptide fusion (C-terminal peptide) (PSI (0-1 scale)); higher = more stable (slower turnover); details: genetic background: wild type; temperature: 30 C
OUTCOME MEASURE: protein stability index
Reply with the value as a number alone.

- TRPGKRNGRPPR: 0.699
- NLRKGHSDERVV: 0.691
- PCTPLPRPRTSR: 0.702
- TGVFFPPQLPLP: 0.69
- LFANGSGSSTSR: 0.715
- KDRGEIKIRTKN: 0.696

### Prompt What does the record list as protein stability index for `CVATTHASHTSP` ?
### Response 0.694

### Prompt Proceed to `GVGSTGAKTVRG`
### Response 0.693

### Prompt Next up: `LPPPPTAPPPSR`
### Response 0.719

### Prompt Another sequence: `GLCSEETPALFY`
### Response 0.717

### Prompt Please give the result for `ALVQAAPPGRTP` too.
### Response 0.686

### Prompt Another sequence to check: `LPRPPAPPMRYM`
### Response 0.709

### Prompt Note, next up: `KKKRNSYMKGNR`
### Response 0.681

### Prompt Would you mind doing `RSPSFLRSFPAL` as well?
### Response 0.686

### Prompt Try this sequence too: `SRGRILAVRNTT`
### Response 0.713

### Prompt Param item: `FFVCCGTRLIGL`
### Response 0.716

====

tested on: Saccharomyces cerevisiae; test: protein stability index of tFT-peptide fusion (C-terminal peptide) (PSI (0-1 scale)); higher = more stable (slower turnover); details: genetic background: wild type; temperature: 30 C
OUTCOME MEASURE: protein stability index
Number only, please.

• PHLWSLPHATTA = 0.684
• GVLVGGERRWVL = 0.699
• PPPPPALPSPPP = 0.631
• CQGHFAAKTEKI = 0.684
• WELVYLASLVQQ = 0.666

### Prompt Give Saccharomyces cerevisiae protein stability index for `VRLPLHHPIPNS`
### Response 0.718

### Prompt Moving on to `QPGPPPRPHVQP`
### Response 0.676

### Prompt What would you report for `SKNLKQTQKKKT` ?
### Response 0.808

### Prompt Please give the result for `RQVSRLFQGKKN` too.
### Response 0.707

### Prompt Input `LRFFLPFLLSLP`
### Response 0.242

### Prompt Next up: `PPPPPPPPPPRA`
### Response 0.723

### Prompt Same thing, different sequence: `LSRHSRSILPSL`
### Response 0.726

### Prompt Same question for `VFSLPFPSRSPL` please.
### Response 0.805

### Prompt Then `CFASLLSFCPLV` ?
### Response 0.695

### Prompt What do you get for `FGLWSSCGWWWT` ?
### Response 0.64

====

# protein stability index per entry
test system: Saccharomyces cerevisiae; experiment: protein stability index of tFT-peptide fusion (C-terminal peptide) (PSI (0-1 scale)); higher = more stable (slower turnover); details: genetic background: wild type; temperature: 30 C;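 also: PSI is a weighted mean of sequencing reads over stability bins, variants kept only with over 10 reads, mCherry proximal and sfGFP distal, peptide attached via GGGS linker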
# print the numeric value only

- SGAWSGGGESGH: 0.596
- EKKRAGEDGRGK: 0.673
- LGSILSSSSSRL: 0.699
- PPLSSSALPARS: 0.692
- FMSRDPKDDTET: 0.685
- PPPPTLPPPLVP: 0.726
- VVVCSLVPLFVL: 0.34
- GLFCCFLCLSVF: 0.261
- TVLRMFPPRSIW: 0.67
- AFGFCKVLSSGC: 0.68

### Prompt Field request: protein stability index | item: `LWSDPGQILVEL`
### Response 0.717

### Prompt Next: `PPPPPPVSPAAL`
### Response 0.69
